The origin of these recorded values is ChEMBL document CHEMBL4049461.

The following compounds are listed with their measured pIC50 values.
# method description: Inhibition of recombinant full length HIV1 reverse transcriptase polymerase domain assessed as decrease in extension of 18 nucleotide DNA primer annealed to 100 nucleotide DNA template after 30 mins
# Parameters: species or system Human immunodeficiency virus 1
Note on pIC50: it is the negative log10 of concentration, concentration in mol/L.

| test smiles | measured number |
| --- | --- |
| O=C(NCc1cc(F)ccc1F)c1c(Nc2ccc(-c3ccccc3)cc2)[nH]c(=O)n(O)c1=O | 5.02 |

Input: I have this compound here, `O=C(Nc1ccc(-c2ccc(F)cc2)cc1)c1c(Nc2ccc(-c3ccccc3)cc2)[nH]c(=O)n(O)c1=O` , and I need its recorded pIC50.
Output: 5.80

* * *

# method description: Inhibition of recombinant full length HIV1 reverse transcriptase RNase H domain using RNA/DNA duplex substrate HTS1 assessed as reduction in internal cleavage of RNA strand by fluoresence assay
# Parameters: species or system Human immunodeficiency virus 1
The following molecules are listed with their measured IC50 values.
# output: number + unit

| test smiles | IC50 |
| --- | --- |
| O=C(NCc1ccccc1)c1c(Nc2ccc(-c3ccccc3)cc2)[nH]c(=O)n(O)c1=O | 110 nM |

Input: I have this molecule here, `O=C(NCc1ccc(F)cc1F)c1c(Nc2ccc(-c3ccccc3)cc2)[nH]c(=O)n(O)c1=O` , and I need its recorded IC50.
Output: 77 nM

Input: I have this molecule here, `O=C(Nc1ccccc1)c1c(NCc2ccc(-c3ccccc3)cc2)[nH]c(=O)n(O)c1=O` , and I need its recorded IC50.
Output: 47 nM

Input: I have this molecule here, `O=C(Nc1cccc2ccccc12)c1c(Nc2ccccc2)[nH]c(=O)n(O)c1=O` , and I need its recorded IC50.
Output: 18 nM

Input: I have this molecule here, `CCc1ccc(NC(=O)c2c(NCc3ccccc3)[nH]c(=O)n(O)c2=O)cc1` , and I need its recorded IC50.
Output: 54 nM

* * *

# method description: Inhibition of recombinant full length HIV1 reverse transcriptase RNase H domain using RNA/DNA duplex substrate HTS1 assessed as reduction in internal cleavage of RNA strand by fluoresence assay
# Design: species or system Human immunodeficiency virus 1
quantity: IC50 (nM)
Expressed in nM, but write only the number.

Worked cases, answers included:
| test smiles | IC50, nM |
| --- | --- |
| Cc1ccc(NC(=O)c2c(Nc3ccccc3)[nH]c(=O)n(O)c2=O)cc1 | 30 |
| O=C(Nc1ccc(C(F)(F)F)cc1)c1c(NCc2ccccc2)[nH]c(=O)n(O)c1=O | 41 |
| O=C(NCc1ccccc1F)c1c(Nc2ccc(-c3ccccc3)cc2)[nH]c(=O)n(O)c1=O | 40 |
| COc1cc2ccccc2cc1/C=N/NC(=O)c1cc(O)c(O)c(O)c1 | 200 |
| O=C(Nc1ccc(-c2ccccc2)cc1)c1c(NCc2ccc(-c3ccccc3)cc2)[nH]c(=O)n(O)c1=O | 140 |
| O=C(Nc1ccc(-c2ccc(F)cc2)cc1)c1c(Nc2ccc(-c3ccccc3)cc2)[nH]c(=O)n(O)c1=O | 970 |
| O=C(Nc1ccc(F)cc1)c1c(Nc2ccccc2)[nH]c(=O)n(O)c1=O | 4 |

# ---- query compound ----
Input: I have this compound here, `O=C(Nc1cccc2ccccc12)c1c(NCc2ccccc2)[nH]c(=O)n(O)c1=O` , and I need its recorded IC50.
Output: 57
